biological target: IκBα-kinase complex (Homo sapiens, UniProt O14920+O15111); construct: endogenous in cells; host or cells: HeLa S3 cell extract, S100 fraction; ammonium sulfate precipitation and Superose-6 size exclusion; experiment: IkB-Kinase ELISA; assay type: biochemical; conditions: activated IκBα kinase complex from HeLa S3 cell extracts; ELISA; read-out: IkB-kinase IC50;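 note: substrate phosphopeptide captured on Protein-A plates, detected with Streptavidin-HRP and TMB absorbance at 450 nm, activity read from a synthetic phosphopeptide standard curve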
Sequence (O14920 whole entry): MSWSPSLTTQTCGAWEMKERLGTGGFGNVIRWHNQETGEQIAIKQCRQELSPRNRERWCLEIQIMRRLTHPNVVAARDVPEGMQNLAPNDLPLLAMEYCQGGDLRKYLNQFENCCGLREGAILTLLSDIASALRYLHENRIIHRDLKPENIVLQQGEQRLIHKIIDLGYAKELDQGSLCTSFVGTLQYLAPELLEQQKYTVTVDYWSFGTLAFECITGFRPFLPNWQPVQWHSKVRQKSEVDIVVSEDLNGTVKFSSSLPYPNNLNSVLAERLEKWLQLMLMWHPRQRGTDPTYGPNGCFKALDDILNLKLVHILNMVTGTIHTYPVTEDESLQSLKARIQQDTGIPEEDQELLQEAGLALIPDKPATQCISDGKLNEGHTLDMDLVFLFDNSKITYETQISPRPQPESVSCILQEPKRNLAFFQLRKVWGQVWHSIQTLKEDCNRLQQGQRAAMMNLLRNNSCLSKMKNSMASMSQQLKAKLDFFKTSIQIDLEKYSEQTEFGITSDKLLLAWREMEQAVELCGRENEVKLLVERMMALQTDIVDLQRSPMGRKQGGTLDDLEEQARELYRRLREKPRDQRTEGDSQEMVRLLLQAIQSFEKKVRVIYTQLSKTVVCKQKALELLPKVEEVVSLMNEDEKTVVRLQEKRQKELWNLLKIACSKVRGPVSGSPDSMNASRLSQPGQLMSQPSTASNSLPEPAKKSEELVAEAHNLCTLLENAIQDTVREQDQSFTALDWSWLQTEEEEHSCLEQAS
Sequence (O15111 whole entry): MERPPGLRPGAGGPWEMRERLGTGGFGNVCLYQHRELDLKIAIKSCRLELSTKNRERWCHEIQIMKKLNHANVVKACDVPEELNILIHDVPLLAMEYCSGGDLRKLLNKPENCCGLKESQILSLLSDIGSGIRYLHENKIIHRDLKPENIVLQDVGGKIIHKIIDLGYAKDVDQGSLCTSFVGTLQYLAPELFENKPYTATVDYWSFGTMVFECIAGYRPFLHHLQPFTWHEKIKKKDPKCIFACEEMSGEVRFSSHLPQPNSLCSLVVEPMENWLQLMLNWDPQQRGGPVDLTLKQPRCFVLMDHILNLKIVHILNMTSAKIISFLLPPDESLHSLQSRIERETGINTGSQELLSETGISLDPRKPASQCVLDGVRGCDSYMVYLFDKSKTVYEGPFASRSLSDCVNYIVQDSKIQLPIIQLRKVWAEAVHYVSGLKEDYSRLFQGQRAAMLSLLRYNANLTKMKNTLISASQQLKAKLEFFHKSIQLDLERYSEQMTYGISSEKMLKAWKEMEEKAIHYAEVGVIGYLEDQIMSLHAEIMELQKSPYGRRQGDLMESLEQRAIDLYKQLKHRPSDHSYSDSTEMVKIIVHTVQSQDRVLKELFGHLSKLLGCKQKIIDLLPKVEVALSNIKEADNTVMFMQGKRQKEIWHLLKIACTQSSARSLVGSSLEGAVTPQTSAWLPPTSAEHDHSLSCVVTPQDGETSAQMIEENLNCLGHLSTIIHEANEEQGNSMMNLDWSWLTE
Sequence (Q9Y6K9 whole entry partner): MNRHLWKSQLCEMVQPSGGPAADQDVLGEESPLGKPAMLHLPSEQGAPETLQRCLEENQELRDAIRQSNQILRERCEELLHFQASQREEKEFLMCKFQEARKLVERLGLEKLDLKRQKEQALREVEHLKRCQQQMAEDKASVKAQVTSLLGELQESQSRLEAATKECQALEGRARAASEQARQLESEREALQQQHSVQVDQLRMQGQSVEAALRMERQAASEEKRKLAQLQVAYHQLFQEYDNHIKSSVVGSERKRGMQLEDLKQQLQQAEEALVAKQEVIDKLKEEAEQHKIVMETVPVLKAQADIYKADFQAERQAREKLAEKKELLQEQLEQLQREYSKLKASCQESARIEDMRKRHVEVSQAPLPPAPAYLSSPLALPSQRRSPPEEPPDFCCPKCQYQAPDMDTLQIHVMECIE
Catalogue of IC50 values
Give the value in nM but do not write nM after it.

Example entries and their recorded answers appear below.
- MOLECULE: "COc1c(Cl)cc2c([nH]c3cnccc32)c1NC(=O)c1ccc(F)c(F)c1 [Example 120]"
  RECORDED_RESULT: 400
- MOLECULE: "CC(C)(C)C(=O)Nc1cc(Cl)cc2c1[nH]c1cnccc12 [Example 57]"
  RECORDED_RESULT: 4300

Field: next molecule
Input line: Please look up its IC50: CC(C)(C)C(=O)Oc1c(Cl)cc2c([nH]c3cnccc32)c1Cl [Example 58]
Output line: 330
